Hello, the source for this data is ChEMBL document CHEMBL1145070, in case you need it.

The molecules below have reported Ki for Tryptase beta-1 (Homo sapiens, UniProt Q15661).
assay.readout: Ki (nM)

[[record]]
smiles_string = "CC(=O)N1CC[C@H]1C(=O)N[C@@H](CCCN=C(N)N)C(=O)c1nc2ccccc2s1"
assay_readout = "Ki"
quantitative_readout = 20

[[record]]
smiles_string = "COS(=O)(=O)N1CCC[C@H]1C(=O)N[C@@H](CCCN=C(N)N)C(=O)c1nc2ccccc2s1"
assay_readout = "Ki"
quantitative_readout = 33

[[record]]
smiles_string = "CC(=O)NCC(=O)N[C@@H](CCCN=C(N)N)C(=O)c1nc2ccccc2s1"
assay_readout = "Ki"
quantitative_readout = 470

